Target: UniProtKB P08183
Sequence (P08183 whole entry): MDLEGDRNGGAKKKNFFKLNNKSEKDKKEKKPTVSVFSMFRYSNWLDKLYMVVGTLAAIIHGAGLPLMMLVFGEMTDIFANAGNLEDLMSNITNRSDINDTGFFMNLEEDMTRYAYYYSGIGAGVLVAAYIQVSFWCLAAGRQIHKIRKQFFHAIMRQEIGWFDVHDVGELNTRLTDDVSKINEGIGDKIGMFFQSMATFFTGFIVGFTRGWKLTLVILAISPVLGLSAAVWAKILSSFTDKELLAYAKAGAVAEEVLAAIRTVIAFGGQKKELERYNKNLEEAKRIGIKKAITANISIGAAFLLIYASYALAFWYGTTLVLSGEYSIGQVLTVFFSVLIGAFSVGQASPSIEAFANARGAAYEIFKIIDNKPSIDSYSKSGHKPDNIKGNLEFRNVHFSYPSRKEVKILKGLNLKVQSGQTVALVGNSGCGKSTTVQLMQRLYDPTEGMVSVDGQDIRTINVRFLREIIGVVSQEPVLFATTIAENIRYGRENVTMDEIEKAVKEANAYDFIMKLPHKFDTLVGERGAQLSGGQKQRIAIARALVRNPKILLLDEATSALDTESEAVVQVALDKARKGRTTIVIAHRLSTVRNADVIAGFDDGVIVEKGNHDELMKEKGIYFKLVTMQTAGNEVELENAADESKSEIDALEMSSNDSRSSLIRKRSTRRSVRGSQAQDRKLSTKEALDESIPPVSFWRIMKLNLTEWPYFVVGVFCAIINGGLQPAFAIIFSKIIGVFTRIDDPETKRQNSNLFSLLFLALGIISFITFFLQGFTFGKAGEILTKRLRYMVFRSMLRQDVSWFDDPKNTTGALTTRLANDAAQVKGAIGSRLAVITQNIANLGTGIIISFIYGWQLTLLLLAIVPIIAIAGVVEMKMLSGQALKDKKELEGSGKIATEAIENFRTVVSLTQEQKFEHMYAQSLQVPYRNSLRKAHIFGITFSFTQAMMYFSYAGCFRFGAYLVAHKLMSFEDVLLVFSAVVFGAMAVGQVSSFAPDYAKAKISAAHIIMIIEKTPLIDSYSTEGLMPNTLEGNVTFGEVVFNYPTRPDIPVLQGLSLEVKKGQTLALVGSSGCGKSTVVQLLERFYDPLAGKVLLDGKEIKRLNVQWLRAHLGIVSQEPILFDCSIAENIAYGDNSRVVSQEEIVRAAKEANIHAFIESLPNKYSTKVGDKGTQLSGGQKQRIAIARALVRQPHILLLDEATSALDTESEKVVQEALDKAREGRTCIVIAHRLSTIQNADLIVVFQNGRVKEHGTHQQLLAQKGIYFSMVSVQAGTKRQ
observation-type: IC50 (µM)

CC1(C)[C@@H](OC(=O)CCC(=O)O)CC[C@]2(C)[C@H]3C(=O)C=C4[C@@H]5C[C@@](C)(C(=O)O)CC[C@]5(C)CC[C@@]4(C)[C@]3(C)CC[C@@H]12 ... 81

====

Target: gap junctions (Homo sapiens, UniProt P17302)
Construct: endogenous in cells
Sequence (P17302 2-382 limits assumed): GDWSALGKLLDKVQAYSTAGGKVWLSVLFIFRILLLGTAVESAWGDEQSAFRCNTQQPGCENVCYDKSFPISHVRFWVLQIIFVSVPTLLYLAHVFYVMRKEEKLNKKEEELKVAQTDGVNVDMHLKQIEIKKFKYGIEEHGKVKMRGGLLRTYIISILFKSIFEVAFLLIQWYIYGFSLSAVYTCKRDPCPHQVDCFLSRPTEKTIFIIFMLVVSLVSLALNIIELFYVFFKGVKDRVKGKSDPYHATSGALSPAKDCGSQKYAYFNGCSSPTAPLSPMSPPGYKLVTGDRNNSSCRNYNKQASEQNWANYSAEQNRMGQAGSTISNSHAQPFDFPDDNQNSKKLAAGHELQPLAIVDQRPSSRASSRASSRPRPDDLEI
Assay: transport of calcein from outer shell to core of KGN spheroids (compartmentalization analysis)
Conditions: 1 μM calcein-AM, 75 minutes; read-out: half-maximal response, inhibition of gap junctions (fraction of calcein compartmentalized to outer shell)
observation-type: IC50 (µM)

CC1(C)[C@@H](OC(=O)CCC(=O)O)CC[C@]2(C)[C@H]3C(=O)C=C4[C@@H]5C[C@@](C)(C(=O)O)CC[C@]5(C)CC[C@@]4(C)[C@]3(C)CC[C@@H]12 [carbenoxolone] ... 9.4
